- Target Under Test: NS3 (Hepatitis C virus)
- Sequence (A3EZJ3 whole entry): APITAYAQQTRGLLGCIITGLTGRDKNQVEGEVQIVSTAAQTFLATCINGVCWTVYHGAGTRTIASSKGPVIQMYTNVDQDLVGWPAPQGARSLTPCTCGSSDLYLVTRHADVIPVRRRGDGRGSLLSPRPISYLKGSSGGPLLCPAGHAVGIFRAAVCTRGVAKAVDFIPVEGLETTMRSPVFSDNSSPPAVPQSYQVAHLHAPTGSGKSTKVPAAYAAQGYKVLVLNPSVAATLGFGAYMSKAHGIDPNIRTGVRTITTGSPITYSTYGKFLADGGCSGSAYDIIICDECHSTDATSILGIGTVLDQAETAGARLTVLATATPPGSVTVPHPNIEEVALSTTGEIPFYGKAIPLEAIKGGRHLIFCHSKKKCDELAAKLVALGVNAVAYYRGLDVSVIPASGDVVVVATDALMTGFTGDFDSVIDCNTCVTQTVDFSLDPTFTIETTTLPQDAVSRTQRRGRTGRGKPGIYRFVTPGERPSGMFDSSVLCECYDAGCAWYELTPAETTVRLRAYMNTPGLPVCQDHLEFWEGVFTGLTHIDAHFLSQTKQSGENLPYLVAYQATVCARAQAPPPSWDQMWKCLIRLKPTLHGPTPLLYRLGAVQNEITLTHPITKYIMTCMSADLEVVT
pKi: −log10 of the molar value. Numbered stars: 1 amine (or outer) side, 2 acyl side, 3 side chain; on linkers, the order of the positions; unused ones are H or OH. Square brackets hold non-standard residues; d marks the D form. Peptide text beside a SMILES is read from it. * marks the point of attachment. Hyp = O=C(O)[C@@H]1C[C@@H](O)CN1; X1 = CCCC(N[*:1])C(=O)C(=O)[*:2]; Chg = N[C@H](C(=O)O)C1CCCCC1; Phg = N[C@H](C(=O)O)c1ccccc1; Boc = CC(C)(C)OC(=O)*; tBu = CC(C)(C)*
Kindly return true (1) if reported pKi is no lower than 7; return false (0) if it is lower.

INSERT INTO results (compound, target_under_test, class) VALUES
  ('CCCC(NC(=O)[C@@H]1C[C@@H]2CN1C(=O)[C@H](C1CCCCC1)NC(=O)Cc1cccc(c1)OCCCO2)C(=O)C(=O)NCC(=O)N[C@H](CO)c1ccccc1 (stereo partly drawn)', 'NS3 (Hepatitis C virus)', 'true (1)'),
  ('CCCC(NC(=O)[C@@H]1C[C@@H]2CN1C(=O)[C@H](C1CCCCC1)NC(=O)Cc1cccc(c1)OCCC(C)(C)O2)C(=O)C(N)=O (stereo partly drawn)', 'NS3 (Hepatitis C virus)', 'false (0)'),
  ('CCCC(NC(=O)[C@@H]1C[C@@H]2CN1C(=O)[C@H](C1CCCCC1)NC(=O)Cc1cccc(c1)OCCCO2)C(=O)C(=O)NCC(=O)N[C@H](C(=O)O)c1ccccc1 (stereo partly drawn)', 'NS3 (Hepatitis C virus)', 'true (1)'),
  ('CCCC(NC(=O)[C@@H]1C[C@@H]2CN1C(=O)[C@H](C1CCCCC1)NC(=O)Cc1cccc(c1)OCCCO2)C(=O)C(=O)NCC(=O)OCc1ccccc1 (stereo partly drawn)', 'NS3 (Hepatitis C virus)', 'false (0)'),
  ('CCCC(NC(=O)[C@@H]1C[C@@H]2CN1C(=O)[C@H](C(C)C)NC(=O)Cc1cccc(c1)OCCC(C)(C)O2)C(=O)C(=O)NCC(=O)N[C@H](C(=O)N(C)C)c1ccccc1 (stereo partly drawn)', 'NS3 (Hepatitis C virus)', 'true (1)'),
  ('CCCC(NC(=O)[C@@H]1C[C@@H]2CN1C(=O)[C@H](C1CCCCC1)NC(=O)Cc1cccc(c1)OCCC(C)(C)O2)C(=O)C(=O)NCC(=O)NCc1ccccc1 (stereo partly drawn)', 'NS3 (Hepatitis C virus)', 'false (0)'),
  ('CCCC(NC(=O)[C@@H]1C[C@@H]2CN1C(=O)[C@H](C1CCCCC1)NC(=O)Cc1cccc(c1)OCCCO2)C(=O)C(=O)NCC(=O)O (stereo partly drawn)', 'NS3 (Hepatitis C virus)', 'false (0)'),
  ('CCCC(NC(=O)[C@@H]1C[C@@H]2CN1C(=O)[C@H](C(C)(C)C)NC(=O)Cc1cccc(c1)OCCC(C)(C)O2)C(=O)C(=O)NCC(=O)N[C@H](C(=O)N(C)C)c1ccccc1 (stereo partly drawn)', 'NS3 (Hepatitis C virus)', 'true (1)'),
  ('CCCC(NC(=O)[C@@H]1C[C@@H](OC(C)(C)C)CN1C(=O)[C@@H](NC(=O)OC(C)(C)C)C1CCCCC1)C(=O)C(=O)NCC(=O)N[C@H](C(N)=O)c1ccccc1 (stereo partly drawn) (Boc-[Chg][Hyp](tBu)[X1]G[Phg]-NH2)', 'NS3 (Hepatitis C virus)', 'false (0)'),
  ('CCCC(NC(=O)[C@@H]1C[C@@H]2CN1C(=O)[C@H](C1Cc3ccccc3C1)NC(=O)Cc1cccc(c1)OCCC(C)(C)O2)C(=O)C(=O)NCC(=O)N[C@H](C(=O)N(C)C)c1ccccc1 (stereo partly drawn)', 'NS3 (Hepatitis C virus)', 'true (1)'),
  ('C=CCNC(=O)C(=O)C(CCC)NC(=O)[C@@H]1C[C@@H]2CN1C(=O)[C@H](C1CCCCC1)NC(=O)Cc1cccc(c1)OCCCO2 (stereo partly drawn)', 'NS3 (Hepatitis C virus)', 'false (0)');
